Test: Metabolic stability assay, monkey liver microsomes
Conditions: monkey, liver microsomes, pH 7.4
endpoint: half-life at 1 µM
Write the numeric value and append its unit.

Reported half-life at 1 µM for Cc1nnn(C)c1-c1cnc2c3c4cnn(C)c4ccc3n([C@H](c3ccccc3)C3CCOCC3)c2c1 was 30 min

====

Assay: Metabolic stability assay, monkey liver microsomes
Details: monkey, liver microsomes, pH 7.4
endpoint: CLint scaled at 1 µM
Write the numeric value and append its unit.

Reported CLint scaled at 1 µM for Cc1nnn(C)c1-c1cnc2c3c4cnn(C)c4ccc3n([C@H](c3ccccc3)C3CCOCC3)c2c1 was 62.4 mL/min/kg

====

Assay: In vivo pharmacokinetics study, mouse
Settings: male, BALB/c nude, plasma, PO 5 mg/kg
endpoint: Cmax
Write the numeric value and append its unit.

Reported Cmax for Cc1nnn(C)c1-c1cnc2c3c4cnn(C)c4ccc3n([C@H](c3ccccc3)C3CCOCC3)c2c1 was 467 ng/mL
